subject.of.test: GlcNAc(b1-3)Gal(b1-4)GlcNAc(b1-3)Gal(b1-4)GlcNAc(b1-2)Man(a1-3)[GlcNAc(b1-3)Gal(b1-4)GlcNAc(b1-3)Gal(b1-4)GlcNAc(b1-2)Man(a1-6)]Man(b1-4)GlcNAc(b1-4)[Fuc(a1-6)]GlcNAc
assay.details: glycan array binding signal (z-score within array); higher = stronger binding
settings: glycan notation: IUPAC condensed, linker removed
Shown is part of a subset that was picked to be rich in the strongest signals.
Measured glycan array binding signal (z-score) by item

For Epa6 (Candida glabrata), Q6DTM7_CANGB (protein) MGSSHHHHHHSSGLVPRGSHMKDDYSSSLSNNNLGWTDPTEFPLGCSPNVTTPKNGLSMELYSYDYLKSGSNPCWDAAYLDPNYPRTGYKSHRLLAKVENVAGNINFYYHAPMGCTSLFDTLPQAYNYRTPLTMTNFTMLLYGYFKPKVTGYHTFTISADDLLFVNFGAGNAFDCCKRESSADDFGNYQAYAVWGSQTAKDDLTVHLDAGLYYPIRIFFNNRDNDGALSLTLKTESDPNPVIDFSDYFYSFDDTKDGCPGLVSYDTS the binder record lists glycan array binding signal (z-score) as -0.255

For Pwp4 (Candida glabrata) (protein) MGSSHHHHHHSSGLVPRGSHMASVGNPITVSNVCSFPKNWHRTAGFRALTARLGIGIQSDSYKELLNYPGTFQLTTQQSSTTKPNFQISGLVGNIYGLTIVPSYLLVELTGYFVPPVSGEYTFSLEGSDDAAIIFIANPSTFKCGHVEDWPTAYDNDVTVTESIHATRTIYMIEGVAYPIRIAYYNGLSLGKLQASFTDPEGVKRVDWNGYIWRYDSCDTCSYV the binder record lists glycan array binding signal (z-score) as 1.26

For Epa3 (Candida glabrata), Q6VBI8_CANGB (protein) MGSSHHHHHHSSGLVPRGSHMNDLGFSLFEKRELSSQNPFGYPIGCSPQDVAIIPGLTMELYSYPIVSGTPPNCYDASYVDPEYPRTGYLKRKMVGKSTGVTGNLNYKYSVEKACMVKYGNLPAGYNYNEPLTVSNFTMILYGYFKAQTTGLHTFFVNADDLLYINFGAGNAFDCCKREDSKTKLGEYVAYDIWHVDSSKNKVSLFLEKDLYYPIRMFFNNIGKDSSLDLSFSVNGATDQISDFSGYLYSVPDQPDTCPAHIGYDTTCR the binder record lists glycan array binding signal (z-score) as 0.201
